- Test system: HOP-62 NSCLC
- Assay overview: NCI tumour cell line growth inhibition, 48 h
Measured TGI of individual entries

# annotated cases, reported TGI shown
CC1C/C(=N\N(C)C)C(C#N)(C#N)C1(C#N)C#N (stereo not drawn): 39.4 µM
O=C1c2nn(-c3ccccc3)nc2C(c2ccccc2)N1c1ccccc1 (stereo not drawn): 96.6 µM
CC[C@@H](C(=O)[C@@H](C)[C@@H](O)[C@H](C)[C@@H]1O[C@@H]([C@@H](CC)C(=O)O)CC[C@@H]1C)[C@H]1OC2(C=C[C@@H](O)[C@]3(CC[C@@](C)([C@H]4CC[C@](O)(CC)[C@H](C)O4)O3)O2)[C@H](C)C[C@@H]1C (stereo partly drawn): 20.7 µM

Record `C#CCNC(=O)CC[C@]1(C)[C@H]2CC[C@@H]3[C@@H]([C@@](C)(O)CCC=C(C)C)CC[C@@]3(C)[C@]2(C)CC[C@H]1C(=C)C` , field TGI: > 100 µM

Record COc1ccc(C(C2C(=O)N(C)C(=O)N(C)C2=O)C(F)(F)C(=O)N(C)C)cc1 (stereo not drawn) , field TGI: > 100 µM

Record `CSc1nc2c(N)ncnc2n1C` , field TGI: > 100 µM

Record `O=c1[nH]c(SCc2c(Cl)c(Cl)c(Cl)c(Cl)c2Cl)nc(=S)[nH]1` , field TGI: > 100 µM

Record `CC(=O)OC(C)(C)N=Nc1ccc(Br)cc1` , field TGI: > 100 µM
